# subject_of_test: T1, SARS-COV-2 RBD (SARS-COV-2, UniProt P0DTC2 319-539)
# T1 construct: also called WT RBD
# experiment_summary: ELISA, RBD coated
As shown below, each of these binders has a reported EC50 value.
Could you give me the number in ng/mL? Just the number is fine.

Solved entries (count: 4):
# binder, unit_symbol, EC50
records = [
    ("C880 (antibody, V domains shown, IgG; V domains only) VH: QVQLQQWGAGLLKPSETLSLTCAVYGGSFSDYYWSWIRQPPGKGLEWIGENNHSGKTNYNPSLENRVTISVDTSKNQFSLKLTSVTAADTAVYYCARESGSYGTFDYWGQGTLVTVSS VL: EIVLTQSPGTLSLSPGERATLSCRASQSVSSAYLAWYQQKPGQAPRLLIYGASSRATGIPDRFSGSGSGTDFTLTISRLEPEDFAVYFCQQYAYTIWTFGQGTKVEIK", "ng/mL", 2.2),
    ("C870 (antibody, V domains shown, IgG; V domains only) VH: EVQLVESGGGLVQPGKSLRLSCAGSGFAFSSYHMNWVRQAPGKGLEWVAYISSGSSTIHYADSVKGRFTISRDNAKNSFYLQMNSLRAEDTALYYCARAIVGTKGYMDVWGKGTTVTVSS VL: QSALTQPASVSGSPGQSVTISCTGTRSDVGSYDLVSWYQLHADKAPKLIIYEVTSRPSGISTRFSGSKSGNTASLTISGLQAEDEADYYCCSYAGTTWLFGGGTRLTVL", "ng/mL", 2.17),
    ("C851 (antibody, V domains shown, IgG; V domains only) VH: QLQLQESGPGLVKTSETLSLTCTVSGGSISSGNSYWGWIRQPPGKGLEWIGDIYYSGSTFYNPSLKSRLTISVDTSKNQFSLKLTSVTAADTAVYYCARRGGRTPVRFNYGGDVWGQGTTVTVSS VL: DIQMTQSPSSLSASVGDRVTITCQASQDISRYLNWFQHKPGKAPKLLIYDASNLEAGVPSRFTGSGSGTEFTFTISSLQPEDFAIYFCQQYDSLPLTFGGGTKVEI", "ng/mL", 2.83),
    ("C966 (antibody, V domains shown, IgG; V domains only) VH: EVQLVESGGGLIQPGGSLRLSCAASGFTFSSYDMHWVRQVTGKGLEWVSAIGTAGDRYYLDSVKGRFTISRENAKNSLHLQMNNLRVGDTAVYYCARASGVLTTHFDSWGRGTLVTVSS VL: DIQMTQSPSSLSASVGDRVTITCRASQSIGRHLSWHQQKLGKAPKLLIYSASSLQSGVPSRFSGSGSGTDFTLTISSLQPEDFATYYCQQSYETPPWTFGQGTKVEIK", "ng/mL", 1.97),
]

# context switch: different binder, same EC50
Sure, the documented EC50 for C984 (antibody, V domains shown, IgG; V domains only) VH: QVQLVQSGTEVKKPGDSVQVSCKTSGYSFTGYYIHWVRQAPGQGLEWMGRINPNSGGTNYAQKFQGRVIMTRDTSITTAFMELTRLRYDDTAVYFCAREPIEGVIGGMIVNYYYMDVWGRGTTVTVSS VL: QSALTQPASVSGSPGQSITISCTGTSSDVGGYYYVSWYQQHPGKAPKLMIYDVSSRPSGVSNRFSGSKSGNTASLTISGLQAEDEADYYCSSYTSSNTLVVFGGGTKLTVL is 2.76
